These entries and their values trace back to ChEMBL document CHEMBL2203124.

- assay_text: Cytotoxicity against human HuH7 cells assessed as growth inhibition
- Type: cell-based, Huh-7
measurement_label: CC50 (µM)
The reply should be a number in µM, with the unit left off.

Can you share its CC50? I mean this compound: "Cc1ccc(-c2c(C)nn3c(NC4CCN(C)CC4)cc(C)nc23)cc1"
18

Form field: reported CC50 of "Cc1cc(NC2CCN(C(C)C)CC2)n2nccc2n1"
12

Which measured CC50 value corresponds to "COCCCNc1cc(C)nc2c(-c3ccc(C)cc3)c(C)nn12" ?
19

Bench note: what CC50 did "Cc1ccc(-c2c(C)nn3c(NC4CCN(C(C)C)CC4)cc(C)nc23)cc1" show?
8.8

# lookup: CC50 of "Cc1ccc(-c2c(C)nn3c(NCc4cccnc4)c4c(nc23)CCCC4)cc1"
8.7

Suppose we examine the compound "Cc1ccc(-c2c(C)nn3c(NCCN(C)C)cc(C(F)(F)F)nc23)cc1" ; what CC50 value has been reported?
15

Can you look up the measured CC50 of "Cc1ccc(-c2c(C)nn3c(NCCCN(C)C)cc(C)nc23)cc1" for me?
22

What value of measured CC50 is listed for "Cc1ccc(-c2c(C)nn3c(NCCc4ccccc4)cc(C)nc23)cc1" ?
5.2
